- measured_on: T1, anti-CD28 Fab (SEQ ID NOs: 202, 203)
- T1 construct: biotinylated and captured on neutravidin coated plates in the phage ELISA
- test_name: phage ELISA on captured Fab, wells pre-incubated with CD28 antigen (competitor);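 note: clonal phage ELISA with wells pretreated with CD28 plus blocking buffer before phage addition, bound phage detected by HRP-linked anti-M13 antibody, reference wells got blocking buffer only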
property_measured: Anti-CD28 Fab signal in the presence of CD28

Answered cases to consult:
binder="YCAGHLAIYMSKCL (on phage, pIII fusion) [Phage-497]" experimental_result=0.08
binder="YCDGHSWQYMWKCI (on phage, pIII fusion) [Phage-531]" experimental_result=0.09
binder="YCAGHAPEYMSKCL (on phage, pIII fusion) [Phage-489]" experimental_result=0.05
binder="YCEGHADEYMWKCL (on phage, pIII fusion) [Phage-520]" experimental_result=0.06
binder="YCDGHSLLYLSKCL (on phage, pIII fusion) [Phage-472]" experimental_result=0.07
binder="YCEGHAPVYMFKCL (on phage, pIII fusion) [Phage-547]" experimental_result=0.08
binder="YCEGHLPMYMIKCL (on phage, pIII fusion) [Phage-464]" experimental_result=0.09

Could you now look at the following binder, please?
For YCDGHSVEYLDKCL (on phage, pIII fusion) [Phage-553] the binder record lists Anti-CD28 Fab signal in the presence of CD28 as 0.08
